// provenance: the supplement of paper PMC9170038

test system: MS2 coat protein; assay: apparent KD of MS2 coat protein; designed switch direction (-1 OFF switch, 1 ON switch): -1; higher = weaker reporter binding; details: input ligand: none
reported.metric: apparent KD of MS2 coat protein
Remember to put the unit after the number in your answer.

The examples below pair each entry with its known result.
Query: Which apparent KD of MS2 coat protein is reported for this sequence? UUUAAGGUAAUUAAGAUCACAUGAGGAUCACCCAUGUAUAUAUAGGAUAUCAGCUCGAUUAGAGCUGAGAAGGAUAUAUACAUA [ExNG3/6-C1] (Eterna round: R96, puzzle: Exclusion NG 3)
Result: 142 nM

Query: // lookup apparent KD of MS2 coat protein for GUCGGACAUGAGGAUCACCCAUGUGAGGAUAUCCUUUAGAGCUAUUAGUAGAUGCUUAGGAGAAGGCACUAGGG [Eternabot (L2) Solution 17] (Eterna round: R97, puzzle: Exclusion 1)
Result: 314 nM

Query: Return reported apparent KD of MS2 coat protein; argument: CUUUUGUGAGGAUAUUAGUAGUAAAUGAAUAAAAUUAUUACUGAGAAGGCACAUGAGGAUCACCCAUGUUCCUU [Mat - Exclusion 4 - Eli Mod - D19] (Eterna round: R97, puzzle: Exclusion 4)
Result: 14.6 nM

Query: // query apparent KD of MS2 coat protein value for entry UUUAAUUGUCACAUGGGUGACAUGAGGAUCACCCAUGUCACAAGCUUUUUGUUCGUCUUAUAAUUAACCCAUGUGAC [Stov1/12-B1] (Eterna round: R97, puzzle: Sensor, turn-off variant 1)
Result: 13.1 nM

Query: Looking for the measured apparent KD of MS2 coat protein of GAGUAGUAAGGAUAUGUCUCUGGUGGCUACGGUCACUAGAGGCAGAAGGUACAUGAGGAUCACCCAUGUUCCUC [ExDelusion 8 - Jieux - Exclusion 4] (Eterna round: R97, puzzle: Exclusion 4) , can you help?
Result: 55.8 nM

Quick one: give me apparent KD of MS2 coat protein for each item below, same order please.
1. GGACAACAUGAGGAUCACCCAUGUCAGGAUAUGACGGCGUCGGCGAAAGCGGAGGCGGUCAGAAGGGACGGUAA [AK-MS2ROC-r4-exclusion1-10.1] (Eterna round: R97, puzzle: Exclusion 1)
2. UAAACAAGCUUAAGAUCCUACAUGAGGAUCACCCAUGUGCUCGUCUUAUAAGGUACUGUGACGAAAGUCACGGUACC [JL TOV1 3.06] (Eterna round: R97, puzzle: Sensor, turn-off variant 1)
3. AAGCAUUGCCAAAGGUAGUGCAAAACAUGAGGAUCACCCAUGUAGGAUAUGGUAGGCAAAGCUUACCAGAAGGACAUGAUAAAU [Mat - Exclusion NG 3 - Mod of JL - D19] (Eterna round: R96, puzzle: Exclusion NG 3)
4. CGCUAAGCUAUGCUCGUCAACAUGAGGAUCACCCAUGUGCACUACGGAAGGUACACAACGUACCAAAGACCUCAAAG [Eternabot (Original) Solution 27] (Eterna round: R97, puzzle: Sensor, turn-off variant 1)

Result:
["51.9 nM", "194 nM", "42 nM", "119 nM"]
